Data origin: patent US11230541B2

tgt: NMDA receptor composed of four subunits including 2 sets of heterodimers of NR1 and NR2B (Homo sapiens, UniProt Q13224)
Construct: host or cells: HEK293 (tetracycline-induced expression)
Sequence (Q13224 27-1484, other chains not shown): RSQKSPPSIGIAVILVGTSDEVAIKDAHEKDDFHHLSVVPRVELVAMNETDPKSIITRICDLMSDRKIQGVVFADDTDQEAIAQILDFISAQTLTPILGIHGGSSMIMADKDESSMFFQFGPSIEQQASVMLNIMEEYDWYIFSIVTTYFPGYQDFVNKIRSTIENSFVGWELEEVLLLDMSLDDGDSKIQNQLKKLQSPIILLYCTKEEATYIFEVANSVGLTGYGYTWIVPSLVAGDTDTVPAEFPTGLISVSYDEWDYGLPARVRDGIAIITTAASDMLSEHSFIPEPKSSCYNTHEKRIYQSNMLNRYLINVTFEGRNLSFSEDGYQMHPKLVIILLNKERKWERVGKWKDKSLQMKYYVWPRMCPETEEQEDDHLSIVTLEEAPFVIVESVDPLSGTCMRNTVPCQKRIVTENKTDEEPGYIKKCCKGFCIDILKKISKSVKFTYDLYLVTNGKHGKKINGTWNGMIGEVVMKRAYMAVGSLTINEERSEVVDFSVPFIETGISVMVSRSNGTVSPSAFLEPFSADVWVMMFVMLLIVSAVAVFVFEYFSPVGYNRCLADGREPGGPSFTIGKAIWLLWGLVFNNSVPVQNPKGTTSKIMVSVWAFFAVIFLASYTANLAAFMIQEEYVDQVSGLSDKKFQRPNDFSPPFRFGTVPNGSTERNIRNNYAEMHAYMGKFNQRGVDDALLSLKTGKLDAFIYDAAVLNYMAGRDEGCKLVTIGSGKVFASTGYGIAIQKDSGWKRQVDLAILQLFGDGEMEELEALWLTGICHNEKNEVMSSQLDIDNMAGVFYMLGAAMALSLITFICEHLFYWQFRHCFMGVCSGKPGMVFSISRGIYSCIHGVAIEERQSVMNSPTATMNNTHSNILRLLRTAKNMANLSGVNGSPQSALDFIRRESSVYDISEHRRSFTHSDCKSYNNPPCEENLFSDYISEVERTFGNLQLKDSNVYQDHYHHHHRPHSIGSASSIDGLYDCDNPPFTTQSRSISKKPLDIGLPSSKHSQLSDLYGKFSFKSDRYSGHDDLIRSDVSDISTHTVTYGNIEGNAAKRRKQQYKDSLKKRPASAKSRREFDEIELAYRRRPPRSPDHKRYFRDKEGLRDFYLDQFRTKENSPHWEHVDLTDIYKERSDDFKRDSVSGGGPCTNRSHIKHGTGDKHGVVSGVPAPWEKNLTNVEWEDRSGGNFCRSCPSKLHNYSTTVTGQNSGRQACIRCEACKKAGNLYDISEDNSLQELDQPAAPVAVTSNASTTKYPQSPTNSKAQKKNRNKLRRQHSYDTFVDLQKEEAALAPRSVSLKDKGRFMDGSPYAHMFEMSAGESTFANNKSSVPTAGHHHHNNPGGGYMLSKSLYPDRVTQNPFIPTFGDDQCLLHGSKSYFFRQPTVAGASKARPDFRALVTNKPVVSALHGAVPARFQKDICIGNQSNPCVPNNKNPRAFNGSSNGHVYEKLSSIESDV
assay.info: NR2B Ca2+ influx assay (FLIPR, Fluo-4) in HEK293 cells expressing human GRIN1 and GRIN2B
Format: cell-based
experimental.conditions: HEK293, 10 μM final compound concentration, glutamic acid/glycine-induced Ca2+ influx, read-out: inhibitory rate (10 μM compound concentration)
endpoint: inhibition at 10 µM (%)
Report as a plain number; the unit % is understood.

Use these answered entries as a reference point.
| sample.smiles | inhibition at 10 µM [%] |
| --- | --- |
| O=C(NCc1c(C2CC2)ccc2[nH]ncc12)c1ccc(C(F)F)s1 | 92 |
| COc1cc(C(=O)NCc2c(C3CC3)ccc3[nH]ncc23)ccc1F | 89 |

Quick one: inhibition at 10 µM for `CCOc1ccc2ncn(C)c2c1CNC(=O)c1ccc(C(F)F)cc1` ?
90

Check `COCc1ccc2ncn(C)c2c1CNC(=O)c1cc(F)c(OC)c(F)c1` too.
88

###

Collected inhibition at 10 µM values appear next to each entry.
tgt: NMDA receptor composed of four subunits including 2 sets of heterodimers of NR1 and NR2B (Homo sapiens)
Construct: host or cells: HEK293 (tetracycline-induced expression)
assay.info: NR2B Ca2+ influx assay (FLIPR, Fluo-4) in HEK293 cells expressing human GRIN1 and GRIN2B
Format: cell-based
experimental.conditions: HEK293, 10 μM final compound concentration, glutamic acid/glycine-induced Ca2+ influx, read-out: inhibitory rate (10 μM compound concentration)
Report as a plain number; the unit % is understood.

Use these answered entries as a reference point.
| sample.smiles | obs.value |
| --- | --- |
| COc1ccc2ncn(C)c2c1CNC(=O)c1ccc(C(F)F)c(Cl)c1 | 92 |
| Cc1ccc2ncn(C)c2c1CNC(=O)c1csc(C(F)(F)F)c1 | 89 |
| COc1ccc2ncn(C)c2c1CNC(=O)c1ccc(C(F)(F)F)cc1 | 90 |
| COc1ccc2ncn(C)c2c1CNC(=O)c1cc(F)c(F)c(F)c1 | 90 |
| COc1ccc2ncn(C)c2c1CNC(=O)c1cc(F)c(OC(F)F)c(F)c1 | 92 |

Quick one: inhibition at 10 µM for `COc1ccc(C(=O)NCc2c(C3CC3)ccc3[nH]ncc23)s1` ?
92

Check `COc1ccc2ncn(C)c2c1CNC(=O)c1cc(F)c(C)c(F)c1` too.
92

Check `O=C(NCc1cccc2[nH]ncc12)c1ccc(C(F)(F)F)cc1` too.
82

Check `Cc1ccc2ncn(C)c2c1CNC(=O)c1ccc(OC(F)F)c(Cl)c1` too.
91

Check `Cc1cc(C(=O)NCc2c(C3CC3)ccc3[nH]ncc23)ccc1F` too.
92

Check `COc1ccc2ncn(C)c2c1CNC(=O)Nc1cccc(F)c1` too.
78

###

tgt: NMDA receptor composed of four subunits including 2 sets of heterodimers of NR1 and NR2B (Homo sapiens, UniProt Q13224)
Construct: host or cells: HEK293 (tetracycline-induced expression)
assay.info: NR2B Ca2+ influx assay (FLIPR, Fluo-4) in HEK293 cells expressing human GRIN1 and GRIN2B
Assay type: cell-based
experimental.conditions: HEK293, 10 μM final compound concentration, glutamic acid/glycine-induced Ca2+ influx, read-out: inhibitory rate (10 μM compound concentration)
endpoint: inhibition at 10 µM (%)
Report as a plain number; the unit % is understood.

Quick one: inhibition at 10 µM for `O=C(NCc1c(C2CC2)ccc2[nH]ncc12)c1ccc(OC(F)(F)F)nc1` ?
93

Check `COc1ccc2ncn(C)c2c1CNC(=O)Nc1ccc(F)c(F)c1` too.
85

Check `COc1ncc(C(=O)NCc2cccc3[nH]ncc23)cc1Cl` too.
70

Check `O=C(NCc1c(C2CC2)ccc2[nH]ncc12)c1ccc(OC(F)F)cc1` too.
91

Check `Cc1ccc(C(=O)NCc2c(C3CC3)ccc3[nH]ncc23)cc1Cl` too.
93
